# assaySummary: Drug excretion in normal Sprague-Dawley rat bile at 10 mg/kg, po by HPLC method
# Type: ADME, organism-based
# Set-up: dose 10 mg/kg, route oral
# cond: read-out: Drug excretion
measure: dose excreted (%)
Numeric answer only, unit % assumed.

Task item: Given COc1ccc(Cl)cc1C(=O)NCCc1ccc(S(=O)(=O)NC(=O)NC2CCCCC2)cc1 [GLYBURIDE] , state its recorded dose excreted.
Reply: 0.01

---

# Test system: Liver microsome
# assaySummary: Apparent hepatic clearance in streptozotocin-induced diabetes mellitus Sprague-Dawley rat liver microsomes assessed per mg protein at 4 uM after 60 mins
# Type: ADME
# cond: 1 h
measure: CLH(app) (µL/min/mg)
Numeric answer only, unit µL/min/mg assumed.

Task item: Quick check: CLH(app) on Liver microsome, item COc1ccc(Cl)cc1C(=O)NCCc1ccc(S(=O)(=O)NC(=O)NC2CCCCC2)cc1 [GLYBURIDE] ?
Reply: 52

---

# System: Liver microsome
# assaySummary: Apparent hepatic clearance in normal Sprague-Dawley rat liver microsomes assessed per mg protein at 4 uM after 60 mins
# Assay type: ADME
# cond: 1 h
measure: CLH(app) (µL/min/mg)
Numeric answer only, unit µL/min/mg assumed.

Task item: Given COc1ccc(Cl)cc1C(=O)NCCc1ccc(S(=O)(=O)NC(=O)NC2CCCCC2)cc1 [GLYBURIDE] , state its recorded CLH(app).
Reply: 205

---

# assaySummary: Terminal elimination half life in normal Sprague-Dawley rat at 10 mg/kg, po by HPLC method
# Format: ADME, organism-based
# Parameters: dose 10 mg/kg, route oral
# cond: in vivo, read-out: beta t1/2 (converted)
measure: half-life (h)
Numeric answer only, unit h assumed.

Task item: Given COc1ccc(Cl)cc1C(=O)NCCc1ccc(S(=O)(=O)NC(=O)NC2CCCCC2)cc1 [GLYBURIDE] , state its recorded half-life.
Reply: 4.55

---

# assaySummary: Cmax in Sprague-Dawley rat model of streptozotocin-induced diabetes mellitus at 10 mg/kg, po by HPLC method
# Assay type: ADME, organism-based
# Set-up: dose 10 mg/kg, route oral
# cond: in vivo
measure: Cmax (ng/mL)
Numeric answer only, unit ng/mL assumed.

Task item: Given COc1ccc(Cl)cc1C(=O)NCCc1ccc(S(=O)(=O)NC(=O)NC2CCCCC2)cc1 [GLYBURIDE] , state its recorded Cmax.
Reply: 1250

---

# assaySummary: Half life in streptozotocin-induced diabetes mellitus Sprague-Dawley rat liver microsomes at 4 uM after 60 mins
# Format: ADME
measure: half-life at 4 µM (min)
Numeric answer only, unit min assumed.

Task item: Given COc1ccc(Cl)cc1C(=O)NCCc1ccc(S(=O)(=O)NC(=O)NC2CCCCC2)cc1 [GLYBURIDE] , state its recorded half-life at 4 µM.
Reply: 31.5

---

# assaySummary: Apparent oral volume of distribution in insulin treated Sprague-Dawley rat model of streptozotocin-induced diabetes mellitus at 10 mg/kg, po by HPLC method
# Type: ADME, organism-based
# Set-up: dose 10 mg/kg, route oral
# cond: in vivo
measure: Vd/F
Answers without a unit are incomplete; give the number and then its unit.

Task item: Given COc1ccc(Cl)cc1C(=O)NCCc1ccc(S(=O)(=O)NC(=O)NC2CCCCC2)cc1 [GLYBURIDE] , state its recorded Vd/F.
Reply: 36.8 L/kg

---

# assaySummary: AUC (0 to t) in Sprague-Dawley rat model of streptozotocin-induced diabetes mellitus at 10 mg/kg, po by HPLC method
# Type: ADME, organism-based
# Design: dose 10 mg/kg, route oral
# cond: in vivo
measure: AUC(0-t)
Answers without a unit are incomplete; give the number and then its unit.

Task item: Given COc1ccc(Cl)cc1C(=O)NCCc1ccc(S(=O)(=O)NC(=O)NC2CCCCC2)cc1 [GLYBURIDE] , state its recorded AUC(0-t).
Reply: 13300 ng·h/mL

---

# assaySummary: AUC (0 to 60 mins) in streptozotocin-induced diabetes mellitus Sprague-Dawley rat liver microsomes at 4 uM after 60 mins
# Type: ADME
# Parameters: dose 4 uM, time < 1 hr
measure: AUC(0-t) at 1 h, 4 µM (µg·h/mL)
Numeric answer only, unit µg·h/mL assumed.

Task item: Given COc1ccc(Cl)cc1C(=O)NCCc1ccc(S(=O)(=O)NC(=O)NC2CCCCC2)cc1 [GLYBURIDE] , state its recorded AUC(0-t) at 1 h, 4 µM.
Reply: 0.916

---

# assaySummary: Tmax in Sprague-Dawley rat model of streptozotocin-induced diabetes mellitus at 10 mg/kg, po by HPLC method
# Type: ADME, organism-based
# Design: dose 10 mg/kg, route oral
# cond: in vivo
measure: Tmax

Task item: Given COc1ccc(Cl)cc1C(=O)NCCc1ccc(S(=O)(=O)NC(=O)NC2CCCCC2)cc1 [GLYBURIDE] , state its recorded Tmax.
Reply: 7.2 h

---

# assaySummary: Apparent oral volume of distribution in normal Sprague-Dawley rat at 10 mg/kg, po by HPLC method
# Type: ADME, organism-based
# Set-up: dose 10 mg/kg, route oral
# cond: in vivo
measure: Vd/F (L/kg)
Numeric answer only, unit L/kg assumed.

Task item: Given COc1ccc(Cl)cc1C(=O)NCCc1ccc(S(=O)(=O)NC(=O)NC2CCCCC2)cc1 [GLYBURIDE] , state its recorded Vd/F.
Reply: 25.7
